Where these numbers come from: PubChem BioAssay (NCI)

test system: HOP-92 NSCLC; assay: NCI-60 one-dose screen, 48 h; conditions: 10 µM
Compounds without any hit were thinned out: in the full panel of roughly 83,000, 20% have a hit. Active and inactive are the calls of the source. The calls were made as follows: active = growth percent below 10; inactive = the rest.
Possible outcomes: active, inactive

molecule	class-label
O=C1Nc2ccc(Cl)cc2/C1=C/c1cccc(OCc2ccccn2)c1	active
CCCn1c(=O)c2[nH]c(-c3ccc(OCc4nc5ccc(C)cc5[nH]4)cc3)nc2n(CCC)c1=O	active
Cc1cc(C)nc(NS(=O)(=O)c2ccc(N/C(N)=N/c3nccc(-c4cccs4)n3)cc2)n1	inactive
Cc1ccc(-c2nc3ccc(C(=O)N=Nc4c(O)[nH]c5ccc(Cl)cc45)cc3[nH]2)cc1	active
Cc1ccc(-c2nc3ccc(C(=O)N=Nc4c(O)[nH]c5ccc([N+](=O)[O-])cc45)cc3[nH]2)cc1	inactive
CN(C)c1cccc2c(S(=O)(=O)Nc3cccc(-c4csc(NC(=O)CCCCCN5CCN(c6cc7c(cc6F)C(=O)N(C6CCC(=O)NC6=O)C7=O)CC5)n4)c3)cccc12 (stereo not drawn)	inactive
COC(=O)c1c(C(=O)OC)c2n(c1C)[C@@H]([C@@H](C)[C@H]1CC[C@H]3[C@@H]4CCC5=CC(=O)CC[C@]5(C)[C@H]4CC[C@]13C)SC2	inactive
Cc1ccc(CNC(=O)Cc2ccc3c(c2)CN(C2CCC(=O)NC2=O)C3=O)cc1 (stereo not drawn)	active

----------
Recorded growth values for a group of molecules are listed next.
tested on: RPMI-8226 leukemia; test: NCI-60 one-dose screen, 48 h (100 = growth as untreated, 0 = no growth, -100 = all killed); details: 10 µM
Compounds without any hit were thinned out: in the full panel of roughly 83,000, 20% have a hit. The source made the active and inactive calls. How the source made its calls: active means growth percent below 10; inactive means the rest.
parameter-measured: growth

> print(dat)
                               input.smiles       test.result
1  COc1cc(/C=C/C(=O)c2ccc(C(F)(F)F)cc2)ccc1Oc1nc(Nc2ccc(F)cc2)nc(N(C)C)n1  13.5% (inactive)
2  COc1ccc(CCN2C(=O)/C(=C/c3csc(C#N)n3)SC2=S)cc1OC   -7.56% (active)
3  O=C(Nc1ccc(OCc2ccccc2)cc1)Nc1ccc(Cl)c(C(F)(F)F)c1   -30.4% (active)
4  Cc1ccc2nc(-c3ccc(-c4nnc(SCC(=O)Nc5ccc(Br)cc5)o4)cc3)[nH]c2c1  41.3% (inactive)
5  CC(=O)c1cc(C(=O)N2c3ccccc3Sc3ccccc32)n2ccc(C)cc12  19.8% (inactive)

----------
test system: DU-145 prostate; assay: NCI-60 one-dose screen, 48 h (100 = growth as untreated, 0 = no growth, -100 = all killed); conditions: 10 µM
About 83,000 compounds went through this panel and 20% of them were active in at least one assay; those are over-represented in the sample as a whole.
parameter-measured: growth (%)

compound	test-result
Cc1ccn2c(C(=O)c3ccc(Br)cc3)cc(-c3cc(-c4ccc(N(C)C)cc4)c(C#N)c(N)n3)c2c1	56.2
COc1cccc2nc(Nc3ccc(F)c(NC(=O)c4ccc(CN5CCN(C)CC5)c(C(F)(F)F)c4)c3)ccc12	6.64
COc1ccccc1C(=O)NNC(=O)CSc1nc2c(c(=O)[nH]1)CCCC2	104
O=C(NO)c1ccc(Cn2ccc3c(Nc4ccccc4)ncnc32)cc1	20
CN(CCF)c1ccc(/C=C/C(=O)c2ccc(N)cc2O)cc1	69.6
COc1ccc(N(C)c2cc(C#N)nc3ccccc23)cc1N	20.3
O=c1nc(-c2ccccc2)cc(-c2cc3ccccc3nc2Cl)[nH]1	38.4
CCOP(=O)(OCC)O[C@H]1CCC(=O)[C@@H]2[C@H]1[C@H]1C[C@@H]3[C@@]4(C)CCCC(C)(C(=O)OC)[C@@H]4CC[C@@]23C=C1C(C)C (some centres undefined)	83.1
O=C(CNc1nc(-c2ccccc2)cs1)Nc1ccc(Cl)cc1	-93.3

----------
tested on: NCI-H226 lung; assay: NCI-60 one-dose screen, 48 h (100 = growth as untreated, 0 = no growth, -100 = all killed); conditions: 10 µM
The panel holds about 83,000 compounds, 20% with a hit somewhere; the sample as a whole holds those more often.
parameter-measured: growth (%)

compound	units-of-measure	test-result
CN1CCN(c2ccc(Nc3nc(NCCCNC(=O)c4ccccc4)c4sccc4n3)cc2)CC1	%	84.6
COc1cc(NC(=O)c2cc(-c3ccc(F)cc3F)ccc2O)cc(OC)c1OC	%	50.9
CC(C)C1=C[C@@]23CC[C@@H]4[C@](C)(CCC[C@]4(C)C(=O)NCc4ccccc4)[C@H]2C[C@@H]1[C@H]1C(=O)OC(=O)[C@H]13	%	76.1
COC[C@@H](CC(C)C)N=C1NC(=O)/C(=C/c2ccc3ncsc3c2)N1	%	-1.9
O=C(Cn1nc(-c2ccccc2)ccc1=O)NN1C(=O)c2ccccc2C1=O	%	101
O=C(c1ccccc1)n1ccc(-c2cc3cc(Br)ccc3oc2=O)n1	%	27.5
Nc1n[nH]c2cccc(C#Cc3cccc(NC(=O)Nc4cc(C(F)(F)F)cc(C(F)(F)F)c4)c3)c12	%	-52.6
O=C(CSc1nnc(-c2ccc3nc(-c4ccccc4)[nH]c3c2)o1)Nc1ccc(Cl)cc1	%	31.4
O=C(c1ccc(O)cc1)C1[C@H](c2ccc(Br)cc2)[C@@H](c2ccccc2)NC12C(=O)Nc1ccc(Br)cc12 (stereo partly drawn)	%	-34.5
COc1cc(OC(F)(F)F)ccc1C(=O)Nc1sc2c(c1C#N)CCC(=O)C2	%	87.9
CC1(c2ccccc2)NC(=O)N(CC(=O)Nc2ccc(C(=O)/C=C/c3ccc(Cl)cc3)cc2)C1=O (stereo not drawn)	%	-0.196
CCOC(=O)C1=C(N)N(c2ccccc2)C2=C(C(=O)CC(C)(C)C2)C1c1ccc(Cl)cc1 (stereo not drawn)	%	70.4
N[C@@H](CSSC[C@H](N)C(=O)Nc1ccc(OCC2CCCC2)cc1)C(=O)Nc1ccc(OCC2CCCC2)cc1	%	-72.5
CC[C@]12C=CCN3CC[C@@]4(c5cc(C#CCNc6ccc(C)c(Nc7nccc(-c8cccnc8)n7)c6)c(OC)cc5N(C)[C@H]4[C@@](O)(C(=O)OC)[C@@H]1OC(C)=O)C32 (stereo partly drawn)	%	30.6
Cc1ccc(-c2cc(-c3cc4ccccc4nc3Cl)[nH]c(=O)n2)cc1	%	-8.6
COc1cc(-c2nc3cc(Cl)c(Cl)cc3[nH]2)ccc1OCc1nnc(-c2ccc(Br)cc2)o1	%	-46.8
CC(=O)Nc1ccc(-c2cn(-c3cccc(C(=O)Nc4ccc(Cl)c(C(F)(F)F)c4)c3)nn2)cn1	%	-72.8
Clc1cccc(N/N=C/c2c[nH]c3ccccc23)n1	%	50.7

----------
test system: SK-MEL-28 melanoma; test: NCI-60 one-dose screen, 48 h; settings: 10 µM
The panel holds about 83,000 compounds, 20% with a hit somewhere; the sample as a whole holds those more often. Calls of active or inactive are those of the source. Rule for the calls: active = growth percent below 10; inactive = the rest.
Possible outcomes: active, inactive

> print(dat)
                               input.smiles  class.label
1  Cc1ccc(-c2cc(-c3cc4ccccc4nc3Cl)[nH]c(=S)n2)cc1     inactive
2  O=C(Nc1ccncc1)c1ccc(-n2c(=O)[nH]c3ccccc3c2=O)cc1     inactive
3  CC(=O)Nc1ccc(-n2cnc3cc(-c4ccc(NS(C)(=O)=O)cc4)ccc32)cc1     inactive
4  C=C(C)[C@@H]1CC[C@]2(COP(=O)(OCC)OCC)CC[C@]3(C)[C@H](CC[C@@H]4[C@@](C)(CCCN)[C@H](C(=C)C)CC[C@]43C)[C@@H]12     inactive
5  COC1=C[C@@]23CCC(=O)N2CCc2cc4c(cc2[C@H]3[C@H]1OC(=O)C(C)(C)O)OCO4     inactive
6  Cc1ccc(C(=O)NNC(=O)CSc2nc3ccccc3c(=O)[nH]2)cc1     inactive
7  O=C1Nc2ccc(Cl)cc2/C1=C/c1cccc(OCc2ccccn2)c1       active
8  Cc1cccc(-c2nc(Nc3ccccc3C(=O)O)c3ccccc3n2)c1     inactive
9  CC1(C)CC[C@]2(C(=O)N3CCOCC3)CC[C@]3(C)C(=CC[C@@H]4[C@@]5(C)CC[C@H](NCO)C(C)(C)[C@@H]5CC[C@]43C)[C@H]2C1       active

----------
Recorded growth values for a group of compounds are listed next.
test system: A549/ATCC NSCLC; assay: NCI-60 one-dose screen, 48 h (100 = growth as untreated, 0 = no growth, -100 = all killed); details: 10 µM
The panel holds about 83,000 compounds, 20% with a hit somewhere; the sample as a whole holds those more often.

compound	measured-target	units-of-measure	growth
COc1ccc(C(=O)NC(=S)N2CCN(c3ncnc4c3cnn4-c3ccccc3)CC2)cc1	A549/ATCC NSCLC	%	58.8
COc1ccc(C2NC(=S)NC(C)=C2C(=O)OC(C)C)cc1OC (centres undefined)	A549/ATCC NSCLC	%	114
COc1ccc2[nH]cc(/C=N/Nc3ccc(Br)cn3)c2c1	A549/ATCC NSCLC	%	23
CN(CCF)c1ccc(/C=C/C(=O)c2ccc(N)cc2O)cc1	A549/ATCC NSCLC	%	68.8
O=C(CSc1ccc(-c2ccc(Cl)cc2)nn1)Nc1ccc(Cl)c(C(F)(F)F)c1	A549/ATCC NSCLC	%	70.5
O=C(N/C(=C1/OCCN1Cc1ccccc1)[P+](c1ccccc1)(c1ccccc1)c1ccccc1)c1ccccc1	A549/ATCC NSCLC	%	47.6
O=C(O)CCCCCCCCCCN1C(=O)/C(=C/c2cnc(-c3ccccc3)s2)SC1=S	A549/ATCC NSCLC	%	46.1
COc1ccccc1[C@H]1C(C(=O)c2ccc(O)cc2)C2(N[C@@H]1c1ccccc1)C(=O)Nc1ccc(Br)cc12 (some centres undefined)	A549/ATCC NSCLC	%	32.6
C=C[C@H]1[C@H](O[C@@H]2OC(CO)[C@@H](O)[C@H](O)C2OC(=O)c2c(O)cc(O)cc2-c2cccc(O)c2)OC=C2C(=O)OCC[C@H]21 (some centres undefined)	A549/ATCC NSCLC	%	95.3
